Assay: chemical genetic growth profiling, strain panel (AID 1159580);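 further: tested at 20 µM; growth read once vehicle control cultures reached saturation at 30 °C; 1 = growth at the plate median or of vehicle wells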
Conditions: S. cerevisiae deletion strains, growth OD, locus YAL030W, strain snc1
Out of some 5,500 compounds screened, about 2,000 (36%) were called active. Another 18% or so got no clear call; they are omitted. No stated cut-off is given here; in the data, active means normalized growth mostly below about 0.91 (no sharp cut-off); inconclusive means no clear call, values can overlap the other calls; inactive means mostly above about 0.92. The list shows a part of the results.
Pick one: true for active, false for inactive

Past entries and their recorded results:
{"compound": "C[C@]12CCC3C(CC[C@]4(O)C[C@@H](O)CC[C@]34C=O)[C@@]1(O)CCC2C1=CC(=O)OC1 (stereo partly drawn)", "class name": "false"}
{"compound": "CC(=O)OC1CC[C@@]2(C)C(CCC3C2CC[C@]2(C)C(C4=CC(=O)OC4)C(OC(C)=O)CC32O)C1 (stereo partly drawn)", "class name": "false"}
{"compound": "COC(=O)C[C@H]1C(C)(C)[C@@H](O)[C@@H]2CC3=C4CC(O)O[C@@H](c5ccoc5)[C@]4(C)CCC3[C@@]1(C)C2=O (stereo partly drawn)", "class name": "false"}

Asked: Query: recorded result category for COC1CC(OC2CCC3(C)C(CCC4C3CCC3(C)C(C5=CC(=O)OC5)C(OC(C)=O)CC43O)C2)OC(C)C1O (stereo not drawn) in this test
Given back: false

Asked: Identify the outcome logged in this assay for the compound shown: CNC[C@H](O)c1cccc(O)c1
Given back: false

Asked: Can you look up the reported call for CC(=O)N1CCN(c2ccc(OCC3CO[C@](Cn4ccnc4)(c4ccc(Cl)cc4Cl)O3)cc2)CC1 (stereo partly drawn) for me?
Given back: true

Asked: Hi, sorry to bother you, what did the test record for C[C@H]1O[C@@H](O[C@H]2[C@@H](O)C[C@H](O[C@H]3[C@@H](O)C[C@H](O[C@H]4CC[C@]5(C)C6CC[C@]7(C)[C@@H](C8=CC(=O)OC8)CC[C@]7(O)C6CC[C@@H]5C4)O[C@@H]3C)O[C@@H]2C)C[C@H](O)[C@@H]1O (stereo partly drawn) ?
Given back: false

Asked: Short answer needed: outcome of this test for Nc1ccc(S(=O)(=O)Nc2ncccn2)cc1 ?
Given back: false

* * *

Assay: chemical genetic growth profiling, strain panel (AID 1159580)
Conditions: S. cerevisiae deletion strains, growth OD, locus YPL241C, strain CIN2, stronger effect = lower value
Among all 5,500 compounds or so, about 2,000 (36%) were called active. About 18% were inconclusive and are not listed. Some of the results follow.
measured property: normalized growth
One number for each entry.

See these solved cases before continuing.
{"compound": "NC(=O)c1ccc([N+](=O)[O-])cc1Cl", "measured property": "normalized growth", "measured result": 1.01}
{"compound": "O=C1CC(=O)CC(c2ccc(Cl)c(Cl)c2)C1", "measured property": "normalized growth", "measured result": 1.01}
{"compound": "CC(C)(C)C1=CC(=O)C=C(C(C)(C)C)C1=O", "measured property": "normalized growth", "measured result": 0.999}

Parameter requested: normalized growth. Apply to each item below.
1. C[C@H]1[C@H](C)CC[C@]2(C(=O)O)CC[C@]3(C)C(=CCC4[C@@]5(C)C[C@@H](O)[C@H](O)[C@@](C)(CO)C5[C@H](O)C[C@]43C)[C@H]12 (stereo not given in full)
2. Cc1ccc(NC(=O)CC#N)c(C)c1

Given back:
1
1.03

* * *

For each entry below, report its normalized growth value.
Assay: chemical genetic growth profiling, strain panel (AID 1159580)
Conditions: S. cerevisiae deletion strains, growth OD, locus YOR265W, strain rbl2, stronger effect = lower value
The whole screen tested about 5,500 compounds, of which about 2,000 (36%) were called active. Another 18% or so got no clear call; they are omitted. This is one part of the list.
Answers are plain numbers.

{"molecule": "COc1ccc(-c2cc(=O)c3c(OC)c(OC)c(OC)c(OC)c3o2)cc1OC", "normalized growth": 1.02}

Go through the items and report each one's normalized growth.
1. C[C@@H](CO)NC(=O)C1C=C2c3cccc4[nH]cc(c34)C[C@H]2N(C)C1 (some centres undefined)
2. Cc1ncc(CO)c(CO)c1O
3. O=S(=O)(O)O
4. C/C=C(\C)C(=O)O[C@@H]1c2c(ccc3ccc(=O)oc23)OC(C)(C)[C@@H]1OC(C)=O

Given back:
[1.01, 1.03, 0.981, 0.991]

* * *

Experiment: chemical genetic growth profiling, strain panel (AID 1159580)
Details: S. cerevisiae deletion strains, growth OD, locus YOR231W, strain MKK1
About 2,000 (36%) of roughly 5,500 compounds were called active. Not shown: some 18% with an inconclusive outcome. No stated cut-off is given here; in the data, active means normalized growth mostly below about 0.91 (no sharp cut-off); inconclusive means no clear call, values can overlap the other calls; inactive means mostly above about 0.92. The list shows a part of the results.
Returns: one label drawn from 1 for active, -1 for inactive

Example results:
{"molecule": "CCCCCCCCCCCCSc1ncn[nH]1", "class name": 1}
{"molecule": "O=c1c2cc(O)c(O)cc2oc2cc(O)c(C3O[C@H](CO)[C@H](O)[C@@H](O)[C@H]3O)c(O)c12 (stereo not given in full)", "class name": -1}
{"molecule": "COc1ccc(-c2cc(=O)c3c(O)cc(O)cc3o2)cc1O", "class name": -1}

Asked: Which outcome was entered for the molecule C[C@@H](CO)NC(=O)C1C=C2c3cccc4[nH]cc(c34)C[C@H]2N(C)C1 (stereo not given in full) in this test?
Given back: -1

Asked: Could you check what this test reported for COC1=CC(=O)C=C(OC)C1=O ?
Given back: -1

Asked: Could you please tell me the result logged for O=C(NC(=S)NNc1ncc(C(F)(F)F)cc1Cl)c1cccs1 in this assay?
Given back: 1

* * *

Test: chemical genetic growth profiling, strain panel (AID 1159580);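 further: tested at 20 µM; growth read once vehicle control cultures reached saturation at 30 °C; 1 = growth at the plate median or of vehicle wells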
Conditions: S. cerevisiae deletion strains, growth OD, locus YDR150W, strain NUM1, stronger effect = lower value
The campaign covered roughly 5,500 compounds. About 2,000 (36%) were called active. Another 18% or so got no clear call; they are omitted. This is one part of the list.
Assign normalized growth to each entry below.
Answers are plain numbers.

Consider the worked cases shown below.
{"molecule": "CCOC(=O)C1C(=O)C=C(c2cccs2)CC1c1ccc(OC)c(OC)c1Cl (stereo not given)", "normalized growth": 0.968}
{"molecule": "NC(N)=Nc1ccc(Cl)cc1", "normalized growth": 1.02}
{"molecule": "Cc1nnsc1C(=O)O/N=C1/CCSc2ccc(F)cc21", "normalized growth": 0.973}
{"molecule": "Cc1cc(N)c2ccccc2[n+]1CCCCCCCCCCCCCC[n+]1c(C)cc(N)c2ccccc21", "normalized growth": 0.0556}
{"molecule": "Cc1cc(N)c2ccccc2[n+]1CCCCCCCCCC[n+]1c(C)cc(N)c2ccccc21", "normalized growth": 0.0524}

Batch: normalized growth for all items listed.
1. COc1c(O)cc2c(c1O)[C@H]1O[C@H](CO)[C@@H](O)[C@H](O)[C@@H]1OC2=O
2. NC(N)=NC(N)=Nc1cc(Cl)cc(Cl)c1
3. N#CCCN1C(=O)C2(OCCO2)c2ccccc21
4. CC1CCCC(C)N1NC(=O)c1ccc(Cl)c(S(N)(=O)=O)c1 (stereo not given)
5. CC(=O)O[C@@H]1CC2C(C)(CC[C@H](O)C2(C)C)C2CC[C@]3(C)C(=CC(=O)O[C@H]3c3ccoc3)C21C (stereo not given in full)

Given back:
[0.98, 0.919, 0.977, 0.992, 1.01]

* * *

Test: chemical genetic growth profiling, strain panel (AID 1159580);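 further: tested at 20 µM; growth read once vehicle control cultures reached saturation at 30 °C; 1 = growth at the plate median or of vehicle wells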
Details: S. cerevisiae deletion strains, growth OD, locus YKL009W, strain mrt4
Among all 5,500 compounds or so, about 2,000 (36%) were called active. Another 18% or so got no clear call; they are omitted. Rule as the data show it: active = normalized growth mostly below about 0.91 (no sharp cut-off); inconclusive = no clear call, values can overlap the other calls; inactive = mostly above about 0.92. Some of the results follow.
Form entry, call: pick from t for active, f for inactive

Worked cases, answers included:
{"molecule": "CC1=CC(=O)C2C(C)(C)CCC[C@]2(C)[C@@]1(O)CCc1ccoc1 (stereo partly specified)", "class name": "f"}
{"molecule": "NC(=O)c1cc([N+](=O)[O-])cc([N+](=O)[O-])c1", "class name": "f"}
{"molecule": "COc1cc(O)c2c(=O)cc(-c3ccc(O)cc3)oc2c1", "class name": "f"}
{"molecule": "CSc1nc(NC(C)C)nc(NC(C)C)n1", "class name": "f"}
{"molecule": "C[C@@H](CO)NC(=O)C1C=C2c3cccc4[nH]cc(c34)C[C@H]2N(C)C1 (stereo partly specified)", "class name": "f"}

Asked: In this assay, the call recorded for COC(=O)C(N)CS (stereo unspecified) was what?
Given back: f

* * *

Assay: chemical genetic growth profiling, strain panel (AID 1159580);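 further: tested at 20 µM; growth read once vehicle control cultures reached saturation at 30 °C; 1 = growth at the plate median or of vehicle wells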
Conditions: S. cerevisiae deletion strains, growth OD, locus YDR502C, strain sam2, stronger effect = lower value
In all, about 5,500 compounds went through this assay and about 2,000 (36%) were called active. About 18% were inconclusive and are not listed. The list shows a part of the results.
measured property: normalized growth
Answers are plain numbers.

# annotated cases, reported normalized growth shown
{"molecule": "O=C(O)CN(CCN(CC(=O)O)CC(=O)O)CC(=O)O", "normalized growth": 0.769}
{"molecule": "CC1(C)S[C@@H]2[C@H](NC(=O)[C@@H](N)c3ccc(O)cc3)C(=O)N2[C@H]1C(=O)O", "normalized growth": 0.999}
{"molecule": "CC1(C)C(=O)CC[C@@]2(C)C1C[C@@H](O)[C@@]1(C)C3=CC(=O)O[C@@H](c4ccoc4)[C@]3(C)CCC21 (some centres undefined)", "normalized growth": 1.02}
{"molecule": "C[C@@H]1CC[C@@]23CCC4(C)[C@@](C=CC5[C@@]6(C)CCC(=O)C(C)(C)C6CC[C@]54C)(OC2=O)C3[C@H]1C (some centres undefined)", "normalized growth": 1.02}
{"molecule": "CC1=C2C(O)C(=O)OC3CC4C(C)(C)C(=O)C=C[C@]4(C)C(CC1)[C@]23C (some centres undefined)", "normalized growth": 1.04}
{"molecule": "CC[C@@]1(O)C(=O)OCc2c1cc1n(c2=O)Cc2cc3ccccc3nc2-1", "normalized growth": 0.803}

Provide normalized growth values for the following items, in order.
1. Nc1nc(/C(=C/CC(=O)O)C(=O)N[C@@H]2C(=O)N3C(C(=O)O)=CCS[C@H]23)cs1
2. CC(=O)OCC(=O)[C@@]1(O)CCC2C3C[C@H](C)C4=CC(=O)C=CC4(C)C3[C@@H](O)CC21C (some centres undefined)
3. CC[C@@]1(O)C(=O)OCc2c1cc1n(c2=O)Cc2cc3cc(O)ccc3nc2-1

Given back:
1: 0.992; 2: 0.989; 3: 0.973
